Item-by-item account of pKi
# system under test: c-Met (Homo sapiens)
# Sequence (P08581 25-1390): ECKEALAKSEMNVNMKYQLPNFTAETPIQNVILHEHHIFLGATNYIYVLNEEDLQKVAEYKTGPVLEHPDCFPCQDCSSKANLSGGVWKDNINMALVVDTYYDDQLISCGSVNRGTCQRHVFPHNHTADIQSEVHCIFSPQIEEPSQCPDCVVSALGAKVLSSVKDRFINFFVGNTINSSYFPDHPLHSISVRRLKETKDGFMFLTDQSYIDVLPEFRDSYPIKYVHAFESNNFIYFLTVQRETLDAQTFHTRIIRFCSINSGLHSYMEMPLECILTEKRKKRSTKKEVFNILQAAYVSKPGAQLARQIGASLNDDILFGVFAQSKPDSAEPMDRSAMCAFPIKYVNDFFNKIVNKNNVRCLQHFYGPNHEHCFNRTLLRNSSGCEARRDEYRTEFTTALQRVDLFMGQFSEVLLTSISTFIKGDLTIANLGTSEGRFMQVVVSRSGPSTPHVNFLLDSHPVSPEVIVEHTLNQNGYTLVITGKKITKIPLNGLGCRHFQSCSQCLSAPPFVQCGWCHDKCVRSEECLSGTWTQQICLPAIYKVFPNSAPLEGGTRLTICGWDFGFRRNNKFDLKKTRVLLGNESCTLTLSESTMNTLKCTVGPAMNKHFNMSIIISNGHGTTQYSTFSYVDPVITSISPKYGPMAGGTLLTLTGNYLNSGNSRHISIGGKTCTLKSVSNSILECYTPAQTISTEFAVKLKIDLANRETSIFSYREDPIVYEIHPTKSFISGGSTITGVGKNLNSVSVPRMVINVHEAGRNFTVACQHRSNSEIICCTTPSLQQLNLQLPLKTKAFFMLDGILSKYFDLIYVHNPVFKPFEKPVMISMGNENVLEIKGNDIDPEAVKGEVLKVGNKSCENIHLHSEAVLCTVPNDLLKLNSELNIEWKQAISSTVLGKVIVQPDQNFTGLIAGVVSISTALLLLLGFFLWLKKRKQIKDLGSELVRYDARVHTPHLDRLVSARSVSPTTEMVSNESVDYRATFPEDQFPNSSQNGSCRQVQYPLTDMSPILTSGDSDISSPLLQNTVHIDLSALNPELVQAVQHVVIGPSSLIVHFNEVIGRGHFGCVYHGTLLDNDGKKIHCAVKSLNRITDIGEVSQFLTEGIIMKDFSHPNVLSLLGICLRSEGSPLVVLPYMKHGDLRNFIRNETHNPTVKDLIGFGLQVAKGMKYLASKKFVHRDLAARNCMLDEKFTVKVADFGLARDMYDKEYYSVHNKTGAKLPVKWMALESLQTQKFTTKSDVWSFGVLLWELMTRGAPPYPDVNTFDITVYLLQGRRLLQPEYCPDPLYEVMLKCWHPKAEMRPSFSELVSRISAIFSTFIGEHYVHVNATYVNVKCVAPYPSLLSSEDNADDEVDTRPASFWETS
# assay comment: Ki determination for the inhibition of c-Met kinase activity (standard coupled enzyme system)
# Assay type: biochemical
# conditions used: coupled enzyme system, 200 μM ATP, 10 μM polyGluTyr, 80 nM c-Met, 30° C.; read-out: c-Met Ki
pKi: −log10 of the molar value.

// below: answered compounds
[[record]]
compound = "Oc1cccc(CCc2nnc3sc(Nc4cccc(F)c4)nn23)c1"
system_under_test = "c-Met (Homo sapiens)"
experimental_value = "< 5.70"

[[record]]
compound = "COc1ccc(Cc2nnc3ccc(Nc4cc(F)cc(F)c4)nn23)cc1"
system_under_test = "c-Met (Homo sapiens)"
experimental_value = "> 7.00"


Using known records, supply pKi for CC(c1ccc(O)cc1)c1nnc2sc(C(=O)N3CCCC3)nn12 (stereo not shown)
< 5.70

Using known records, supply pKi for "Oc1ccc(Cc2nnc3ccc(Nc4cc(F)cc(F)c4)nn23)cc1Cl"
> 7.00

Using known records, supply pKi for "Oc1ccc(Cc2nnc3sc(Nc4cc(Cl)ccc4Cl)nn23)cc1"
> 7.00

Using known records, supply pKi for CC(O)c1cccc(Nc2ccc3nnc(Cc4ccc(O)cc4)n3n2)c1 (stereo not shown)
> 7.00

Using known records, supply pKi for "Fc1cccc(Nc2nn3c(Cc4ccc5c(c4)OCO5)nnc3s2)c1"
> 7.00

Using known records, supply pKi for "c1coc(-c2nn3c(Cc4ccc5c(c4)OCO5)nnc3s2)c1"
< 5.70

###

# system under test: c-Met (Homo sapiens)
# assay comment: Ki determination for the inhibition of c-Met kinase activity (standard coupled enzyme system)
# Format: biochemical
# conditions used: coupled enzyme system, 200 μM ATP, 10 μM polyGluTyr, 80 nM c-Met, 30° C.; read-out: c-Met Ki
Item-by-item account of Ki

[[record]]
compound = "Oc1ccc(Cc2nnc3ccc(Nc4cccc(Cl)c4)nn23)cc1"
result_type = "Ki"
experimental_value = "< 100 nM"

[[record]]
compound = "CC1CCC(Nc2ccc3nnc(Cc4ccc(O)cc4)n3n2)CC1 (centres unmarked)"
result_type = "Ki"
experimental_value = "100 to 2000 nM"

[[record]]
compound = "Oc1ccc(Cc2nnc3ccc(Nc4cc(Cl)cc(Cl)c4)nn23)cc1F"
result_type = "Ki"
experimental_value = "< 100 nM"

[[record]]
compound = "Oc1ccc(Cc2nnc3ccc(Nc4ccc(Cl)cc4)nn23)cc1"
result_type = "Ki"
experimental_value = "100 to 2000 nM"


Next compound, please.
Using known records, supply Ki for CC(c1ccc(O)cc1)c1nnc2sc(C(=O)NC3CC3)nn12 (centres unmarked)
> 2000 nM

###

# system under test: UniProtKB P08581
# assay comment: Ki determination for the inhibition of c-Met kinase activity (standard coupled enzyme system)
# Format: biochemical
# conditions used: coupled enzyme system, 200 μM ATP, 80 nM c-Met, 30° C.; read-out: c-Met Ki
pKi: −log10 of the molar value.
Item-by-item account of pKi

// below: answered molecules
[[record]]
molecule = "Nc1cc(C(F)(F)F)ccc1OCc1nnc2ccc(Nc3cccc(Cl)c3)nn12 [Compound 429]"
result_type = "pKi"
experimental_value = "< 5.70"

[[record]]
molecule = "COc1cc(Cc2nnc3ccc(Nc4cccc(Cl)c4)nn23)ccc1O [Compound 442]"
result_type = "pKi"
experimental_value = "> 7.00"

[[record]]
molecule = "Oc1c(Cc2nnc3ccc(Nc4cccc(Cl)c4)nn23)cnc2ncnn12 [Compound 516]"
result_type = "pKi"
experimental_value = "< 5.70"


Fetch value of pKi on UniProtKB P08581 for Clc1cccc(Nc2ccc3nnc(Cc4ccc5c(c4)CCO5)n3n2)c1 [Compound 355] .
> 7.00

Fetch value of pKi on UniProtKB P08581 for Oc1ccc(Cc2nnc3ccc(Nc4cc(Cl)cc(Cl)c4)nn23)cc1 [Compound 294] .
> 7.00
